Would you kindly list z-score for each of these compounds?
# ASSAY TEXT: splicing luciferase reporter signal modulators, primary screen, spliceosome inhibition project, cell-based, HEK293, splice +/- reporter (AID 1101);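 note: HEK293 cells carrying a splicing-competent luciferase reporter gene; test concentration not given here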
# TEST CONTEXT: luminescence, 24 h, higher = more signal, called active from +8 up or from −8 down
The response must contain the number and no unit.

Identify the reported z-score for the following entry. CC(C)[C@H]1NC(=O)[C@@]23C(=O)N[C@@H](Cc4ccccc4)C2[C@H](C)[C@@]2(C)O[C@H]2C3/C=C/C/C=C\CNC(=O)[C@H](Cc2ccccc2)NC1=O (some centres not stated)
0.0723

Look up z-score of CCOC(=O)C1=C[C@@H](c2ccccc2)N(S(=O)(=O)c2ccc(C)cc2)[C@H]1c1ccccc1 and report it.
-0.924

Specify reported z-score for the compound shown: C=C(C)[C@@H]1CC=C(C(O)C2C=CC3C(=O)N(c4ccccc4)C(=O)C3N2Nc2ccc(C#N)cc2)CC1 (some centres not stated)
0.857

Give the measured z-score for COCCOC(=O)N1C(=O)[C@@]2(c3ccccc31)[C@H](c1ccccc1OCCO)N1[C@H](c3ccccc3)[C@H](c3ccccc3)OC(=O)[C@H]1[C@@H]2C(N)=O
-2.08

Consider the compound COc1ccc([Si](C)(C)[C@H]2[C@H](CCO)O[C@@]3(C(=O)N(Cc4ccccc4)c4ccc(N5CCOC5=O)cc43)[C@@H]2C)cc1 and give its recorded z-score.
-0.711

Please supply the value of reported z-score for the item Cc1ccc([C@H]2C(C(=O)O)=C[C@@H](C(C)(C)C)N2S(=O)(=O)c2ccc(C)cc2)cc1
0.0856

Look up and state reported z-score for COc1cc(NN2C(C(O)C3CCCCC3)C=CC3C(=O)N(C)C(=O)C32)cc(OC)c1OC (configuration not stated)
1.1
